Quick reference for pIC50 among some molecules
- assayed.system: human orexin-1 receptor (Homo sapiens (Human))
- Sequence (O43613 whole entry): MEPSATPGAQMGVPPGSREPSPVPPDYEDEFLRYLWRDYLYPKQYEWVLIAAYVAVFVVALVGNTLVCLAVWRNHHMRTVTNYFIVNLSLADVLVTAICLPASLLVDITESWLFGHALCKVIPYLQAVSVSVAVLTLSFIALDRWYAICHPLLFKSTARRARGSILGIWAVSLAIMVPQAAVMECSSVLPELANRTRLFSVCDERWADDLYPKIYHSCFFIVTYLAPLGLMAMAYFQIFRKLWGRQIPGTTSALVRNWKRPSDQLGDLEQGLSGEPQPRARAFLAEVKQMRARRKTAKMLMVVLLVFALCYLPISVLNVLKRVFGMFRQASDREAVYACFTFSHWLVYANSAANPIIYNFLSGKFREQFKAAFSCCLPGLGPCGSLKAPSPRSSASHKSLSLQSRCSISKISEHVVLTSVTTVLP
- assay.method.text: In vitro assay: intracellular calcium measurements (FLIPR), antagonistic activity
- Assay type: cell-based
- measurement.conditions: CHO cells, 3 nM orexin-A, compound incubation 120 min; marked values are geometric means of n = 2-6; read-out: IC50 OX1
pIC50: −log10 of the molar value.
measured.parameter: pIC50

# molecule, experimental.value
records = [
    ("CC(C)Oc1cccc(F)c1C1CC(C)C(=O)N1Cc1ccc(OC(F)(F)F)cc1 (stereo not drawn)", 5.82),
    ("COc1cccc(OC)c1C1CCCC(=O)N1Cc1ccnc(-c2nccs2)c1 (stereo not drawn)", 7.72),
    ("COc1cccc(Cl)c1[C@@H]1C[C@@H](O)C(=O)N1Cc1ccc(OC(F)(F)F)cc1 (racemic)", 5.61),
]
